Documented kon across a set of binders
assay system: T1, recombinant human CD3 epsilon/gamma heterodimer (human, UniProt P07766 23-126; P09693 23-116)
T1 construct: Recombinant heterodimer used as analyte in Octet; also called hCD3 E/G
T1 sequence (P07766 23-126, chain 1 of 2): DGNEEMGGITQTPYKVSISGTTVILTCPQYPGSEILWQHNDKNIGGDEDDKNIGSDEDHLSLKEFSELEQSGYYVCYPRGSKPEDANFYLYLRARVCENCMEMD
T1 sequence (P09693 23-116, chain 2 of 2): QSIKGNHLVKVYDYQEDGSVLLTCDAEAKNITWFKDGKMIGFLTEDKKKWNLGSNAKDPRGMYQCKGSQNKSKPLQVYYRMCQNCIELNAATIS
assay method text: BLI (Octet), mAb 5 ug/mL on FAB2G sensor, hCD3 E/G 200-50 nM;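 note: antibodies purified from hybridoma supernatants, measured by Octet binding to recombinant human CD3 protein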
// units = M⁻¹ s⁻¹; emit number, no label

binder="ABL-CD3-80 (antibody, V domains shown, mAb purified from hybridoma; chimeric AlivaMab IgG (human VH, CH1 and upper hinge; mouse middle hinge, CH2, CH3; human light chain)) VH: EVQLVESGGGLVKPGGSLRLSCAASGFTFSGYSMNWVRQAPGKGLEWVSSISSRSRYIYYADSVQGRFTISRDNSKNSLFLQMNSLRAEDTAVYYCGRDWRELLLDYWGQGTLVTVSS VL: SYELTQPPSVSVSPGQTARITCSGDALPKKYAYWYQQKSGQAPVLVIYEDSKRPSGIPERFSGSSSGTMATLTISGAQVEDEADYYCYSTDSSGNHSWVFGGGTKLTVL" assay_readout=kon value=243000

Challenge: # kon lookup, item ABL-CD3-76 (antibody, V domains shown, mAb purified from hybridoma; chimeric AlivaMab IgG (human VH, CH1 and upper hinge; mouse middle hinge, CH2, CH3; human light chain)) VH: EVQLVESGGGLVKPGGSLRLSCAASGFTFSNYYMNWVRQAPGKGLERVSSISSSSNYIYYADSVKGRFTISRDNAKNSLYLQMNSLRAEDTAVYYCARDRRELPLDYWGQGTVVTVSS VL: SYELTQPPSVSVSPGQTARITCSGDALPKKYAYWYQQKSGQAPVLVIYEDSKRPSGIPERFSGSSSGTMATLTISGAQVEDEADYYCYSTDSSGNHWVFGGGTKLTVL
Response given: 345000
